# IC50 per record follows
- targetOrTestSystem: pEGFR (Tyr1068) in PC-9 cells (Ex19Del) (Homo sapiens (Human), UniProt P00533, DEL746-750)
- Sequence (P00533 other isoform, or with tags, fused parts or gaps del 746-750): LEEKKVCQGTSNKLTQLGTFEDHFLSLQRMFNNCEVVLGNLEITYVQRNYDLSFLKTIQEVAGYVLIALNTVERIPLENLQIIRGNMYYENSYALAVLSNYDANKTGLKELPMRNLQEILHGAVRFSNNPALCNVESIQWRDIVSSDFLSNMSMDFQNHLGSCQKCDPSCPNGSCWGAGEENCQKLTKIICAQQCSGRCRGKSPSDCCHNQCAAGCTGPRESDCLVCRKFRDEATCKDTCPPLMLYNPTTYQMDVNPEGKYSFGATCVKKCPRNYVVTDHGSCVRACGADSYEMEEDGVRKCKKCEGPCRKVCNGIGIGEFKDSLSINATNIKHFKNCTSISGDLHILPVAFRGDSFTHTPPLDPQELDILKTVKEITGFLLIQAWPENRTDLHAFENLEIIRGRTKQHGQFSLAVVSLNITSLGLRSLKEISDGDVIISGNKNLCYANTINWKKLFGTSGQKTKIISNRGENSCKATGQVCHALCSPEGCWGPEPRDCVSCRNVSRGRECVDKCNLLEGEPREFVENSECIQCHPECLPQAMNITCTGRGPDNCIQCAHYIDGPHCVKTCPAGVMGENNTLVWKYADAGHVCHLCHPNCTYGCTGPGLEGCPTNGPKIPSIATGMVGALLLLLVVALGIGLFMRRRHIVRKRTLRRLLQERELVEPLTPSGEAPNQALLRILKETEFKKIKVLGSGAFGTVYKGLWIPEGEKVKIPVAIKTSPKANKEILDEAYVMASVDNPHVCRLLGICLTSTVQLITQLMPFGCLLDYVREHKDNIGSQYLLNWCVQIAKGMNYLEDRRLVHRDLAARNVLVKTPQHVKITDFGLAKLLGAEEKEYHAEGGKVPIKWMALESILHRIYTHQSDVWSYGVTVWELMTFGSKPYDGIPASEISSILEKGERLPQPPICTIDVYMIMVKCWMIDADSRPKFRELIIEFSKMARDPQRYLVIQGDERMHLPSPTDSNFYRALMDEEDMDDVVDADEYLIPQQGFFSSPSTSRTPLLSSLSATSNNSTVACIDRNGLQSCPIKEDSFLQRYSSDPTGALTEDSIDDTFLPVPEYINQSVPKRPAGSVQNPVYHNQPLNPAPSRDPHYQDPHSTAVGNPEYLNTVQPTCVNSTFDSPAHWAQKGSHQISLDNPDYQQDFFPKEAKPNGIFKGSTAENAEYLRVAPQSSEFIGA
- methodSummary: PC-9 pEGFR AlphaLISA assay
- details: 4 hours incubation, p-EGFR (Tyr1068) AlphaLISA, read-out: Ext pEGFR_PC-9 Ex19Del IC50

{"compound": "[2H]C([2H])([2H])N1CCN(C(=O)Oc2cc3c(-c4cn(C)nc4-c4ccccc4)ncnc3cc2OC)[C@@H](C)C1 [Example 93]", "unitsText": "nM", "IC50": 4.3}
{"compound": "CCn1cc([C@@H](C)Oc2nc3c(-c4cn(C)nc4-c4ccccc4)ncnc3cc2OC)nn1 [Example 35]", "unitsText": "nM", "IC50": 2.7}
{"compound": "COc1cc2ncnc(-c3cn(C)nc3-c3ccccc3)c2cc1OC(=O)N1CCO[C@@H]2C[C@@H]21 (racemic) [Example 83]", "unitsText": "nM", "IC50": 4.9}
{"compound": "CCOc1cc2ncnc(-c3cn(C)nc3-c3ccccc3)c2cc1OC(=O)N1CCO[C@H](C)C1 [Example 73]", "unitsText": "nM", "IC50": 11.1}
{"compound": "COc1cc2ncnc(-c3cn(C)nc3-c3ccccc3)c2cc1NC(=O)[C@H]1CCCN1C (single isomer, unassigned) [Example 242]", "unitsText": "nM", "IC50": 6.6}
{"compound": "CCOc1cc2ncnc(-c3cn(C4CC4)nc3-c3ccccc3)c2cc1CO [Example 135]", "unitsText": "nM", "IC50": 3.1}
{"compound": "COc1cc2ncnc(-c3cn(C)nc3-c3ccccc3)c2cc1OC(=O)N1CCOC[C@@H]1C [Example 62]", "unitsText": "nM", "IC50": 8.7}

---

- targetOrTestSystem: EGFR (d746-750) (Homo sapiens (Human), UniProt P00533, DEL746-750)
- methodSummary: Biochemical EGFR inhibition assay, EGFR (d746-750)
- details: Caliper mobility shift; 1.0 mM ATP or ATP Km; read-out: Enz EGFR_Exon19-del746-750 IC50
# IC50 per record follows
quantityName: IC50 (nM)

{"compound": "COc1cc2ncnc(-c3cn(C)nc3-c3ccccc3)c2cc1OC1CCOC1 (stereo not shown)", "targetOrTestSystem": "EGFR (d746-750) (Homo sapiens (Human), UniProt P00533, DEL746-750)", "obsValue": 2.4}
{"compound": "COc1cc2ncnc(-c3cn(C)nc3-c3ccccc3)c2cc1NC(=O)c1cnn(C(F)(F)F)c1", "targetOrTestSystem": "EGFR (d746-750) (Homo sapiens (Human), UniProt P00533, DEL746-750)", "obsValue": 1.5}
{"compound": "COc1cc2ncnc(-c3cn(C)nc3-c3ccccc3)c2nc1NC(=O)[C@]1(C(F)(F)F)CCCN1C (single isomer, unassigned)", "targetOrTestSystem": "EGFR (d746-750) (Homo sapiens (Human), UniProt P00533, DEL746-750)", "obsValue": 3.7}
{"compound": "COc1cc2ncnc(-c3cn(C)nc3-c3ccc(F)cc3)c2nc1NC(=O)C12CC(N(C)C)(C1)C2", "targetOrTestSystem": "EGFR (d746-750) (Homo sapiens (Human), UniProt P00533, DEL746-750)", "obsValue": 1.3}

The origin of these recorded values is patent US20250236608A1.
